Would you kindly list inhibition for each of these molecules?
Species: Homo sapiens
Assay: Inhibition of human GALK1 K252A/E253A double mutant relative to control
Design: concentration or dose not given beside the values
Settings: concentration not given here
Write down the numeric answer in % and omit the unit.

Reported inhibition for CC1=C(C(=O)Nc2cc(C(=O)O)ccn2)C(c2ccccc2Cl)N=C(Nc2nc3cccc(F)c3o2)N1 (stereo not drawn) : what is it?
100

Further, for CC1=C(C(=O)Nc2cc(C(=O)O)ccn2)C(c2cccc(F)c2Cl)N=C(Nc2nc3ccc(F)cc3o2)N1 (stereo not drawn) ?
100

Same read-out for CC1=C(C(=O)Nc2cc(C(=O)O)ccn2)C(c2cccc(S(N)(=O)=O)c2)N=C(Nc2nc3ccc(F)cc3o2)N1 (stereo not drawn) ?
75

And for CC1=C(C(=O)Nc2cc(C(=O)O)ccn2)C(c2cccc(C(F)(F)F)c2Cl)N=C(Nc2nc3ccc(F)cc3o2)N1 (stereo not drawn) ?
97

Repeat for the following molecule: CC1=C(C(=O)Nc2cc(C(=O)O)ccn2)C(c2ccccc2Cl)N=C(Nc2nc3cc(C)ccc3o2)N1 (stereo not drawn)
100

Same lookup for CC1=C(C(=O)Nc2cc(C(=O)O)ccn2)C(c2ccccc2Cl)N=C(Nc2nc3cccc(C)c3o2)N1 (stereo not drawn) , please.
100

Then this molecule: CC1=C(C(=O)Nc2cc(C(=O)O)ccn2)C(c2ccccc2Cl)N=C(Nc2nc3cc(Cl)ccc3o2)N1 (stereo not drawn)
100

Please answer likewise for CC1=C(C(=O)NCc2cncn2C)C(c2ccccc2Cl)N=C(Nc2nc3ccccc3o2)N1 (stereo not drawn)
98

---

Assay: Stability of compound in rat microsomes assessed as half-life
Assay type: ADME, Microsome
Measured quantity: half-life

Quick one: half-life for CC1=C(C(=O)Nc2ccc(CO)nc2)C(c2ccccc2Cl)N=C(Nc2nc3ccccc3o2)N1 (stereo not drawn) ?
> 30 min

Proceed to CC1=C(C(=O)Nc2cc(C(=O)O)ccn2)C(c2ccc(F)cc2Cl)N=C(Nc2nc3ccc(F)cc3o2)N1 (stereo not drawn)
> 30 min

Would you kindly repeat that for CC1=C(C(=O)Nc2cc(C(=O)O)ccn2)C(c2ccccc2Cl)N=C(Nc2nc3ccc(Cl)cc3o2)N1 (stereo not drawn) ?
> 30 min

---

Assay: Kinetic aqueous solubility of the compound
Format: physicochemical
Conditions: buffer; read-out: Kinetic_solubility
Measured quantity: solubility kinetic (µg/mL)
Express the result in µg/mL but write the number alone.

Requested field: solubility kinetic. Item: COc1ccc(C2N=C(Nc3nc4ccc(F)cc4o3)NC(C)=C2C(=O)Nc2cc(C(=O)O)ccn2)c(Cl)c1 (stereo not given)
8.3

Now try CC1=C(C(=O)NCc2ccccn2)C(c2ccccc2Cl)N=C(Nc2nc3ccccc3o2)N1 (stereo not given) .
1.8

And what about the molecule CC1=C(C(=O)Nc2ccc(CN)cc2)C(c2ccccc2Cl)N=C(Nc2nc3ccccc3o2)N1 (stereo not given) ?
10

Further, for COP(=O)(OC)C1=C(C)NC(Nc2nc3ccccc3o2)=NC1c1ccccc1Cl (stereo not given) ?
12.2

Try this molecule too: CC1=C(C(=O)Nc2cc(C(=O)O)ccn2)[C@H](c2ccccc2Cl)N=C(Nc2nc3ccc(F)cc3o2)N1
55.6

Also CC1=C(C(=O)Nc2cc(C(=O)O)ccn2)C(c2ccccc2Cl)N=C(Nc2nc3cccc(C(F)(F)F)c3o2)N1 (stereo not given) , if possible.
61.1

---

Exercise: for every item that follows, state its recorded Papp.
Assay: Permeability of compound by PAMPA assay
Format: ADME
Details: read-out: permeability

Papp for CC1=C(C(=O)Nc2cc(C(=O)O)ccn2)C(c2ccccc2Cl)N=C(Nc2nc3cc(F)ccc3o2)N1 (stereo unspecified) ?
< 10 ×10⁻⁶ cm/s

Consider next the compound CC1=C(C(=O)Nc2ccc(C(N)=O)cc2)C(c2ccccc2Cl)N=C(Nc2nc3ccccc3o2)N1 (stereo unspecified) in the same way.
< 6.3 ×10⁻⁶ cm/s

Entry to check: CN(C)CCNC(=O)C1CC(=O)C2=C(C1)NC(Nc1nc3ccccc3o1)=NC2c1ccccc1Cl (stereo unspecified)
< 9.8 ×10⁻⁶ cm/s

Repeat with CC1=C(C(=O)Nc2cc(C(=O)O)ccn2)C(c2ccc(Cl)cc2Cl)N=C(Nc2nc3ccc(F)cc3o2)N1 (stereo unspecified)
< 1 ×10⁻⁶ cm/s

Another compound to look at: CC1=C(C(=O)Nc2cccc(Br)c2)C(c2ccccc2Cl)N=C(Nc2nc3ccccc3o2)N1 (stereo unspecified)
< 1.8 ×10⁻⁶ cm/s

Next compound up: CC1=C(C(=O)Nc2cc(-c3nn[nH]n3)ccn2)C(c2ccc(C)cc2Cl)N=C(Nc2nc3ccc(F)cc3o2)N1 (stereo unspecified)
< 1 ×10⁻⁶ cm/s

Next entry: CC1=C(C(=O)Nc2cc(C(=O)O)ccn2)C(c2ccccc2Cl)N=C(Nc2nc3ccc(C)cc3o2)N1 (stereo unspecified)
< 1 ×10⁻⁶ cm/s

Now consider CC1=C(C(=O)Nc2cc(C(=O)O)ccn2)C(c2ccc(-c3ccccc3)cc2Cl)N=C(Nc2nc3ccc(F)cc3o2)N1 (stereo unspecified) and answer again.
< 4.9 ×10⁻⁶ cm/s

Next compound up: CC1=C(C(=O)Nc2cc(C#N)ccn2)C(c2ccccc2Cl)N=C(Nc2nc3ccc(F)cc3o2)N1 (stereo unspecified)
< 6.8 ×10⁻⁶ cm/s

Next compound up: CC1=C(C(=O)Nc2cc(C(=O)O)ccn2)C(c2ccc(N3CCCC3)cc2Cl)N=C(Nc2nc3ccc(F)cc3o2)N1 (stereo unspecified)
< 1 ×10⁻⁶ cm/s

// next record CC1=C(C(=O)Nc2cc(C(=O)O)ccn2)C(c2cccc(C(N)=O)c2)N=C(Nc2nc3ccc(F)cc3o2)N1 (stereo unspecified)
< 1 ×10⁻⁶ cm/s

# repeat for CC1=C(C(=O)NCc2ccccc2O)C(c2ccccc2Cl)N=C(Nc2nc3ccccc3o2)N1 (stereo unspecified)
< 19.3 ×10⁻⁶ cm/s

Thanks! And CC1=C(C(=O)Nc2cc(C(=O)O)ccn2)C(c2cccc(C(F)(F)F)c2Cl)N=C(Nc2nc3ccc(F)cc3o2)N1 (stereo unspecified) ?
< 10 ×10⁻⁶ cm/s

Moving on to CC1=C(C(=O)Nc2ccc(C(=O)O)nc2)C(c2ccccc2Cl)N=C(Nc2nc3ccccc3o2)N1 (stereo unspecified)
< 1 ×10⁻⁶ cm/s

Now give it for CCOC(=O)c1nnc(NC(=O)C2=C(C)NC(Nc3nc4ccccc4o3)=NC2c2ccccc2Cl)s1 (stereo unspecified) too.
< 2.7 ×10⁻⁶ cm/s

How about this compound: CC1=C(C(=O)Nc2cc(C(=O)O)ccn2)C(c2cccc(Cl)c2Cl)N=C(Nc2nc3ccc(F)cc3o2)N1 (stereo unspecified)
< 10 ×10⁻⁶ cm/s
